The measurements presented in this section are drawn from patent US20230295297A1.

Target: T1, human TREM2 on primary cells (human, UniProt Q9NZC2 19-230)
T1 construct: also called TREM2 on hDC; hMAC
T1 sequence: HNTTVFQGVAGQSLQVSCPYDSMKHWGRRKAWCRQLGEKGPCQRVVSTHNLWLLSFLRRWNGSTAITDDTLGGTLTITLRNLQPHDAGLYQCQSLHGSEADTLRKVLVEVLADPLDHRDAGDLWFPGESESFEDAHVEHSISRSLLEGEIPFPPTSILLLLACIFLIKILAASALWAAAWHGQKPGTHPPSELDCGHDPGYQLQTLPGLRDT
Test: FACS, primary hDC
MEASURE: % Positive hDC (%)
Provide the reading as a plain figure in %.

Which % Positive hDC value is on record for 8A1 (antibody, IgG2a, V domains shown, mIgG2a) VH: EVQLQQSGAELVKPGASVKISCKASGYAFSNYWMSWVKQRPGKGLEWIGQIYPGDGDTKYNGKFEGKATLTADKSSSTAYMQLSSLTSEDSAVYFCSREKGADYYGSTYSAWFSYWGQGTLVTVSA VL: DIQMTQSPASLSVSVGETVTITCRTSENVYSNLAWYQQKQGKSPQLLVYAATNLADGVPSRFSASGSATQFSLKINSLQSADFGSYYCHHFWGTPYTFGGGTKLEMN ?
94

Form field: reported % Positive hDC of 9F5 (antibody, IgG1, V domains shown, mIgG1; VH FR 169/184/202/216, HVR 60/78/97; also called mAb T2-9F5.1; 9F5 MAb) VH: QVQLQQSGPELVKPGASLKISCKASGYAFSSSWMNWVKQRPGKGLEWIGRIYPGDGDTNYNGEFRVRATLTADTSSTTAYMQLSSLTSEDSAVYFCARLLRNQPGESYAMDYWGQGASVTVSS VL: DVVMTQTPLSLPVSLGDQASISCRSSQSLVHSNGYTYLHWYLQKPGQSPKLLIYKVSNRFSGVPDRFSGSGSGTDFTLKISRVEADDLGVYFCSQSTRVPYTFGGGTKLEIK
73

Could you tell me which % Positive hDC is on file for 9G1 (antibody, IgG1, V domains shown, mIgG1) VH: QVQLQQSGAELVKPGASVKLSCKASGYIFTTYWIHWVKQRPGRGPEWIGRIDPNNGDTNYNEKFKTKATLTVDKPSSTADMQLSSLTSEDSAVYYCVMTGTDFDYWGQGTTLTVSS VL: DVLMTQTPLSLPVSLGDQASISCRFSQSLVHSNGNTYLHWYLQKPGQSPKLLIYKVSNRFSGVPDRFSGSGSGTDFTLRISGVEAEDLGVYFCSQSTRVPPTFGGGTKLEIK ?
60
